System: SF-268
Assay: NCI tumour cell line growth inhibition, 48 h
Active and inactive are the calls of the source. No stated cut-off is given here; in the data, active = GI50 up to about 1.1 µM and inactive = higher.
Outcomes: active, inactive

MOLECULE	CATEGORY
COc1cc(C2c3cc4c(cc3[C@H](NC(=O)c3cccs3)C3COC(=O)[C@H]23)OCO4)cc(OC)c1OC (stereo not given in full)	active
COc1ccccc1C1C(C(=O)Nc2ccccc2)=C(C)NC(C)=C1C(=O)Nc1ccccc1	inactive
CC1(c2cccc(C3CCC4(C=CC3=O)OCCO4)c2)OCCO1 (stereo not given)	inactive
CCCC(O)c1cn(C(NC(=O)c2ccccc2)P(=O)(OCC)OCC)nn1 (stereo not given)	inactive
CCOC(=O)Cc1nc2c(O)ncnc2n1C1OC(COC(C)=O)C(OC(C)=O)C1OC(C)=O (stereo not given)	inactive
Cc1csc2c(P(=O)(OC(C)C)OC(C)C)c(-c3ccccc3)cn12	inactive
CN1CCN(C2=CC(=O)c3c(O)ccc(O)c3C2=O)CC1	inactive
CCOc1ccc(N/C(=C(/C(Cl)=C(/Cl)N(CC)CC)[N+](=O)[O-])n2nnc3ccccc32)cc1	inactive
COC(=O)CN(CC1O[C@@H]2OC(C)(C)O[C@@H]2C1NC(C)=O)C(=O)OCc1ccccc1 (stereo not given in full)	inactive
COC(=O)C(Cc1cc(OC)c(OC)c(OC)c1)(NC(=O)c1ccccc1)P(=O)(OC)OC (stereo not given)	inactive
CC(=O)c1c(C)[n+]([O-])c2cc(C)c(C)cc2[n+]1[O-]	inactive
O=[N+]([O-])c1cccc2c1[nH]c1c(-c3ccccc3)nccc12	inactive
COC(=O)c1sc2c(c1C(=O)OC)/C(=N/C(C)(C)C)S/C2=N\C(C)(C)C	inactive
O=Cn1c2ccccc2c2ccccc21	inactive
COCC1OC(OC2OCC3OC4(OCC(O)(C(C)OC)C5OCOC54)OC3C2OC)C(OC)C(O)C1OC1OC(C)C(OC)C(OC2OC(C)C3OC4(CC(O)C(OC5CC(OC6CC(C)([N+](=O)[O-])C(OC)C(C)O6)C(OC(=O)c6c(C)c(Cl)c(O)c(Cl)c6OC)C(C)O5)C(C)O4)OC3(C)C2O)C1O (stereo not given)	inactive
CC(/C=C/C(=O)c1sc(-n2nc(-c3ccccc3)cc2-c2ccccc2)nc1C)=C\c1ccccc1	inactive
Cc1cn([C@H]2C[C@@H](N3C(=O)c4ccccc4C3=O)[C@@H](CO[Si](C)(C)C(C)(C)C)O2)c(=O)[nH]c1=O	inactive
Cc1ccc(/N=N/C(=N/NC(=O)c2cc(Cl)ccc2C(=O)c2ccccc2)c2ccc(N(CCC#N)CCC#N)cc2C)cc1	inactive
CCCCCCCCCCCC[N+]12CC[N+](C)(CC1)CC2	inactive
C/C(O)=C1\CC2CN3CCc4c([nH]c5ccccc45)C3CC2CC1=O (stereo not given)	inactive
CN(CCO)/N=N/c1n[nH]cc1C(N)=O	inactive
N#Cc1nc(CCN2C(=O)c3ccccc3C2=O)oc1N	inactive
O=C1c2ccsc2-c2cccc3cccc1c23.O=C1c2sccc2-c2cccc3cccc1c23	inactive
N#CC(NNC(=O)c1c(Cl)c(Cl)c(Cl)c(Cl)c1-c1nc2cc(C(=O)c3ccccc3)ccc2[nH]1)c1ccccc1 (stereo not given)	inactive
O=c1[nH]c2nc3ccccc3c(=O)n2nc1Cc1ccccc1	inactive
CC(=O)OCCOCNC(=S)N/N=C/c1ccc([N+](=O)[O-])o1	inactive
C[C@]12CCc3nonc3C1CC[C@@H]1C2CC[C@]2(C)NC(=O)CCC12 (stereo not given in full)	inactive
O=Cc1cccc2c1Oc1c(cccc1C(=O)O)S2	inactive
Cc1ccsc1/C=N/Nc1cnccn1	inactive
CN(C(=O)C12C3(C(=O)C(C)(C)C)C4C5(C#N)C3C1(C(=O)C(C)(C)C)C5C42C(=O)C(C)(C)C)C(C)(C)C (stereo not given)	inactive
NNC(=O)Cc1cccnc1	inactive
CC1Cc2c(Br)nc(N)nc2NC1=O (stereo not given)	inactive
C#CC1NC(=O)C1N(CC)CC (stereo not given)	inactive
CCCCCCc1cc2cc(C(=O)Nc3ccccc3F)c(=N)oc2cc1O	inactive
C=C(CO)CC(O)c1ccccc1 (stereo not given)	inactive
CC(O)(CCCCCl)c1nc2ccccc2s1 (stereo not given)	inactive
Nc1ccc(S(=O)(=O)Nc2nc3ccccc3nc2N2CCCCC2)cc1	inactive
N#C/N=C1\NC(Cc2ccccc2)C(=O)N1CCc1c[nH]c2ccccc12 (stereo not given)	inactive
COc1ccc2oc(=N)c(C(=O)Nc3ccccc3)cc2c1	inactive
O=c1ccn(C/C=C/c2ccccc2)c(=S)n1C/C=C/c1ccccc1	inactive

====

Property: GI50; scope: individual compounds
System: SF-268
Assay: NCI tumour cell line growth inhibition, 48 h
Calls of active or inactive are those of the source. Rule as the data show it: active = GI50 up to about 1.1 µM and inactive = higher.
RESULT_TYPE: GI50

>>> df
                                   compound              reading
0  Cc1c(Cl)ccc2c1NC(=O)C2(O)CC(=O)c1ccc(Cl)cc1Cl (centres undefined)   > 50 µM (inactive)
1  Cc1nc2cccc(F)c2c(=O)n1-c1nnc(C(F)(F)F)s1   > 10 µM (inactive)
2  ClCCN(CCCl)c1ccc(CNCCCNCc2ccc(N(CCCl)CCCl)cc2)cc1   1.43 µM (inactive)
3  CCOC(=O)c1cc(C2(O)CCN(Cc3ccccc3)C2=O)c(-c2cc(C)no2)[nH]1 (centres undefined)  > 100 µM (inactive)
4  O=C(c1cccc(C(=O)c2ccc3c4c(cccc24)C(=O)N(c2ccccc2)C3=O)c1)c1ccc2c3c(cccc13)C(=O)N(c1ccccc1)C2=O  > 100 µM (inactive)
5  Cc1nn(C(=O)c2ccc(Cl)cc2)c2c1C(c1ccc(O)cc1)SC(=N)N2 (centres undefined)   > 10 µM (inactive)
6  COC(=O)C12OCC34C(CC5C(C)=C(O)C(=O)CC5(C)C3C(O)C1O)OC(=O)C(OC(=O)C=C(C)C)C24 (centres undefined)  > 500 µM (inactive)
7  COc1ccc(C2S/C(=C\c3ccccc3)C(=O)N2NC(=O)Cc2ccccc2)cc1 (centres undefined)  > 100 µM (inactive)
8  O=C(OC[C@H]1C[C@H]2C(=O)OCCC[C@H]2O1)c1ccccc1  > 100 µM (inactive)

====

System: HL-60
Experiment: NCI tumour cell line growth inhibition, 48 h
Activity calls are given as the source filed them. Rule as the data show it: active = GI50 up to about 1.1 µM and inactive = higher.
Outcomes: active, inactive

>>> df
                                    molecule  test_target  category
 0                    O=Cn1c2ccccc2c2ccccc21        HL-60  inactive
 1  Nc1nccc(NCC2(CO)CC(CCc3ccccc3)C2)n1 (stereo not drawn)        HL-60  inactive
 2  COc1ccc(C2OC(N)=C(C#N)C3=C2CCCC3C)cc1OC (stereo not drawn)        HL-60  inactive
 3   C=C(CO)CC(O)c1ccccc1 (stereo not drawn)        HL-60  inactive
 4                          NNC(=O)Cc1cccnc1        HL-60  inactive
 5          Cc1cc(=O)n2nc(CSc3nnc(N)s3)sc2n1        HL-60  inactive
 6  COc1ccc(-c2c(C(C)=O)c(-c3ccccc3)n(C3OC(COC(C)=O)C(OC(C)=O)C(OC(C)=O)C3OC(C)=O)c(=S)c2C#N)cc1 (stereo not drawn)        HL-60  inactive
 7  Cc1nc2cccc(F)c2c(=O)n1-c1nnc(C(F)(F)F)s1        HL-60  inactive
 8  Cc1nc(N)nc(N)c1-c1ccc(Cl)c(Cl)c1 [METOPRINE]        HL-60    active
 9  COc1ccc(C2C3=C(CCCC3=O)N(c3ccccc3)C3=C2C(=O)CCC3)cc1        HL-60  inactive
10  COC(=O)C(=O)C(/C(=N/N)C(=O)Nc1ccccc1C(N)=O)c1nc2ccc([N+](=O)[O-])cc2nc1O (stereo not drawn)        HL-60  inactive
11                    Cc1ccsc1/C=N/Nc1cnccn1        HL-60  inactive
12               c1csc(-c2csc(-c3ccsc3)c2)c1        HL-60  inactive
13  COc1ccc(C2C(Cl)C(=O)N2n2cnc3ccccc3c2=O)cc1 (stereo not drawn)        HL-60  inactive
14  COc1ccccc1NCc1cccc2c(=O)c3ccc(Cl)cc3oc12        HL-60  inactive
15  C=CCC1(C#N)C(=S)NC2=C(C(=O)CC(C)(C)C2)C1c1ccccc1 (stereo not drawn)        HL-60  inactive
16         COc1cc2nc(-c3ccccc3F)nc(O)c2cc1OC        HL-60  inactive
17  c1ccc2c[n+](CCCCCCCCCC[n+]3ccc4ccccc4c3)ccc2c1        HL-60  inactive
18  COC(=O)CN(CC1O[C@@H]2OC(C)(C)O[C@@H]2C1NC(C)=O)C(=O)OCc1ccccc1 (stereo partly drawn)        HL-60  inactive
19         O=C(O)CCCNS(=O)(=O)c1ccc2ccccc2c1        HL-60  inactive
20  COc1ccccc1C[C@@H]1OC2(C=CC(=O)CC2SC(=O)c2ccccc2)O[C@H]1Cc1ccccc1OC (stereo partly drawn)        HL-60  inactive
21  CCCCCCCCC#CCCCCCCC(F)C(=O)O (stereo not drawn)        HL-60  inactive
22                  S=C1CSc2c(ccc3ccccc23)N1        HL-60  inactive
